Each item that follows carries a reported combination Emax.
test system: HCC1954 (Breast Carcinoma); experiment: combination Emax (second highest fraction inhibited in the dose matrix, 72 h); higher = more inhibition; extreme values may be limits of the assay
Respond with the number and no other words.

[
  {
    "molecule": "C=CCn1c(=O)c2cnc(Nc3ccc(N4CCN(C)CC4)cc3)nc2n1-c1cccc(C(C)(C)O)n1 [AZD1775] + C[C@@H]1COCCN1C2=NC(=NC(=C2)C3(CC3)[S@](=N)(=O)C)C4=C5C=CNC5=NC=C4 [AZD6738] (first compound max 1 µM, partner max 10 µM)",
    "combination Emax": 0.77
  }
]

Here is the next item to consider.
In one line, give reported combination Emax of the entry NC1(C(=O)N[C@@H](CCO)c2ccc(Cl)cc2)CCN(c2ncnc3[nH]ccc23)CC1 [Capivasertib] + C[C@@H]1COCCN1C2=NC(=NC(=C2)C3(CC3)[S@](=N)(=O)C)C4=C5C=CNC5=NC=C4 [AZD6738] (first compound max 10 µM, 7x7, partner max 10 µM) . 0.859

###

test system: A549 (Lung Adenocarcinoma); assay: combination Emax (second highest fraction inhibited in the dose matrix, 72 h); higher = more inhibition; extreme values may be limits of the assay
Each item that follows carries a reported combination Emax.
Respond with the number and no other words.

[
  {
    "molecule": "COc1nnc2ccc(N3CCC(c4ccc(OCCN5CCN(C)C(=O)[C@H]5C)cc4)CC3)nn12 [AZD5153] + C[C@@H]1COCCN1C2=NC(=NC(=C2)C3(CC3)[S@](=N)(=O)C)C4=C5C=CNC5=NC=C4 [AZD6738] (first compound max 1 µM, 7x7, partner max 10 µM)",
    "measured": 0.912
  }
]

Here is the next item to consider.
In one line, give reported combination Emax of the entry CN(CCO)CC[C@H](CSc1ccccc1)Nc1ccc(S(=O)(=O)NC(=O)c2ccc(N3CCC([C@@H](O)c4ccccc4-c4ccc(Cl)cc4)CC3)cc2)cc1S(=O)(=O)C(F)(F)F [AZD4320] + C[C@@H](Nc1cc(F)cc(F)c1)c1cc(C(=O)N(C)C)cc2c(=O)cc(N3CCOCC3)oc12 [AZD8186] (first compound max 1 µM, 7x7, partner max 3 µM) . 0.401

###

system: VCaP (Prostate Carcinoma); test: Bliss excess, mean over the matrix (fraction); higher = more synergy;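 further: after 72 h of two-drug dosing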
Mark yes (1) for reported Bliss excess of 0.0003 or greater; mark no (0) for anything smaller.

Answered cases to consult:
[
  {
    "compound": "CCc1c2c(nc3ccc(O)cc13)-c1cc3c(c(=O)n1C2)COC(=O)[C@]3(O)CC [SN-38] + O=C(c1cc(Cc2n[nH]c(=O)c3ccccc23)ccc1F)N1CCN(C(=O)C2CC2)CC1 [Olaparib] (first compound max 0.3 µM, 7x7, partner max 10 µM)",
    "classification": "yes (1)"
  },
  {
    "compound": "COc1cccc(OCCCN)c1-c1cc(Nc2cnc(C#N)cn2)n[nH]1 [Prexasertib] + C[C@@H]1COCCN1C2=NC(=NC(=C2)C3(CC3)[S@](=N)(=O)C)C4=C5C=CNC5=NC=C4 [AZD6738] (first compound max 1 µM, 7x7, partner max 10 µM)",
    "classification": "no (0)"
  },
  {
    "compound": "NC1(C(=O)N[C@@H](CCO)c2ccc(Cl)cc2)CCN(c2ncnc3[nH]ccc23)CC1 [Capivasertib] + CC(=O)c1c(C)c2cnc(Nc3ccc(N4CCNCC4)cn3)nc2n(C2CCCC2)c1=O [Palbociclib] (first compound max 10 µM, 7x7, partner max 10 µM)",
    "classification": "yes (1)"
  },
  {
    "compound": "COc1cccc(OCCCN)c1-c1cc(Nc2cnc(C#N)cn2)n[nH]1 [Prexasertib] + Cc1cc2ncnn2cc1Nc1ncc2c(n1)n(C1CCOCC1)c(=O)n2C [AZD7648] (first compound max 1 µM, 7x7, partner max 10 µM)",
    "classification": "no (0)"
  },
  {
    "compound": "Cc1c2c(nn1C)CSCc1cc(n(C)n1)CSc1cc(c3ccccc3c1)OCCCc1c(C(=O)O)n(C)c3c-2c(Cl)ccc13 [AZD5991] + CC1(C)CCC(CN2CCN(c3ccc(C(=O)NS(=O)(=O)c4ccc(NCC5CCOCC5)c([N+](=O)[O-])c4)c(Oc4cnc5[nH]ccc5c4)c3)CC2)=C(c2ccc(Cl)cc2)C1 [Venetoclax] (first compound max 1 µM, 7x7, partner max 1 µM)",
    "classification": "no (0)"
  }
]

// switching to the query compound
Entry C[C@@H](c1ccc2nccn2c1)n1nnc2ncc(-c3cnn(C)c3)nc21 [Savolitinib] + Cc1c2c(nn1C)CSCc1cc(n(C)n1)CSc1cc(c3ccccc3c1)OCCCc1c(C(=O)O)n(C)c3c-2c(Cl)ccc13 [AZD5991] (first compound max 1 µM, 7x7, partner max 1 µM) : is its Bliss excess no less than 0.0003? no (0)
